Target: Human SARS-CoV-2_Wuhan S (SmT1) (SARS-CoV-2 (Wuhan), UniProt P0DTC2 14-1208)
Experiment: flow cytometry SVNA, VHH vs biotin-S binding to Vero E6 ACE2

binder	valueUnit	Imax %
NRCoV2-MRed05 VHH (VHH) VHH: EVQLVESGGGLVQPGGSLRLSCAASGFTLDYYAIGWFRQAPGKEREGVSCISSSDGSTLYADSVKGRFTISRDNAKNTVYLQMNSLKPEDTAVYYCATGPQAYYSGSYYFQCPQAGMDYWGKGTQVTVSS	%	88
NRCoV2-1d VHH (VHH) VHH: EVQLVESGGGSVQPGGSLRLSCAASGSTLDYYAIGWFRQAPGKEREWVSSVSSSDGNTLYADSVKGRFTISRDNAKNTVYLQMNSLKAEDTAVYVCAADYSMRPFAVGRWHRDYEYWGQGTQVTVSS	%	72
NRCoV2-14 VHH (VHH) VHH: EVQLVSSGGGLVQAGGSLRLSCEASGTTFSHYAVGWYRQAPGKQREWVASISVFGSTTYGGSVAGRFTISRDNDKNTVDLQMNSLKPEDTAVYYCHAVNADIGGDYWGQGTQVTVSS	%	54
NRCoV2-15 VHH (VHH) VHH: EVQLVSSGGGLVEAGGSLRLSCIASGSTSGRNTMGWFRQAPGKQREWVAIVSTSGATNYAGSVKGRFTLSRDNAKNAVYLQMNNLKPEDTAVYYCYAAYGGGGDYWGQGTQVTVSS	%	44
NRCoV2-02 VHH (VHH) VHH: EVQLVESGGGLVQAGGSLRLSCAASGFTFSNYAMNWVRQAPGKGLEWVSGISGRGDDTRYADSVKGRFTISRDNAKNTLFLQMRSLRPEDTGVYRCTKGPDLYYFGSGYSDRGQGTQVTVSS	%	100
NRCoV2-05 VHH (VHH) VHH: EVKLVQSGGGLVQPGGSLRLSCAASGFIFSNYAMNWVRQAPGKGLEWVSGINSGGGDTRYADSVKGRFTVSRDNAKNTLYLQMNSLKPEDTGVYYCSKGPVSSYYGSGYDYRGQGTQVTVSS	%	97
NRCoV2-10 VHH (VHH) VHH: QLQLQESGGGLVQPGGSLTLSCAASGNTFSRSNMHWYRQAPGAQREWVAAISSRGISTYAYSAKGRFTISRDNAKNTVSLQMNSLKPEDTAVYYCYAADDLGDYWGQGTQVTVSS	%	50
NRCoV2-20 VHH (VHH) VHH: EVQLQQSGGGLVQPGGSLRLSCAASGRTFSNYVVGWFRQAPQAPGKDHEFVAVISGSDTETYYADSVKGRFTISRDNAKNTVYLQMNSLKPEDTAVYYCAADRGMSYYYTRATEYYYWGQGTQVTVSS	%	43
